Measured values drawn from patent US20030207812A1 for this set.

Target: CD45 (Homo sapiens)
Construct: incubating the cytosolic portion of CD45 with the compounds and p-nitrophenyl phosphate (pNPP); purchased BIOMOL (Plymouth Meeting, Pa.)
Sequence (P08575 599-1306 limits assumed): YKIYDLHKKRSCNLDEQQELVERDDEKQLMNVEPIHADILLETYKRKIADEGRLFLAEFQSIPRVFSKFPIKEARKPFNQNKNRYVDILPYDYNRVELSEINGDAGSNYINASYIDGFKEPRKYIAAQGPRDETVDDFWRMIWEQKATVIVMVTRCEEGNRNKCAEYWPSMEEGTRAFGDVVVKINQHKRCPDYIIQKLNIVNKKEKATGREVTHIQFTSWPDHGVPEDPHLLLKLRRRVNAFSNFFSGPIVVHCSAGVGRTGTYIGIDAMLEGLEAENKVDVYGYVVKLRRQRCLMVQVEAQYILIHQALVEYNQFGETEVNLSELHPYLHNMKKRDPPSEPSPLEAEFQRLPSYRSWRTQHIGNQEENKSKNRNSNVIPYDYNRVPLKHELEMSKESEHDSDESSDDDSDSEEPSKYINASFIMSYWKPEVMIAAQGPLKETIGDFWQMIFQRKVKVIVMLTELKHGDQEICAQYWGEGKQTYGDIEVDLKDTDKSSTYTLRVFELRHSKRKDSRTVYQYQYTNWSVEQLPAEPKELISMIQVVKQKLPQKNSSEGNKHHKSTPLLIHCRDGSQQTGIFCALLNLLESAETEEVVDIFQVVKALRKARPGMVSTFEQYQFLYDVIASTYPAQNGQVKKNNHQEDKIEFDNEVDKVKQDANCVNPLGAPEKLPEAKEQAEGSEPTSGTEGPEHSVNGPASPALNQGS
Assay: Phosphatase assay using pNPP as substrate
Type: biochemical
Conditions: CD45 phosphatase, pNPP substrate, pH 7.0; read-out: pNPP IC50
pIC50: −log10 of the molar value.
measured-quantity: pIC50

| smi | tested-target | pIC50 |
| --- | --- | --- |
| CCCC(=O)Nc1ccc2c(c1)C(=O)C(=O)c1ccccc1-2 | CD45 (Homo sapiens) | 6.15 |
| COC(=O)CCC(=O)Nc1cccc2c1-c1ccccc1C(=O)C2=O | CD45 (Homo sapiens) | 6.15 |
| COC(=O)CCCCCCCCC(=O)Nc1ccc2c(c1)-c1ccccc1C(=O)C2=O | CD45 (Homo sapiens) | 5.80 |

(A) O=C1C(=O)c2cc(NC(=O)c3ccccc3[N+](=O)[O-])ccc2-c2ccccc21
(B) COC(=O)CCC(=O)Nc1ccc2c(c1)C(=O)C(=O)c1cc(NC(=O)CCC(=O)OC)ccc1-2
Incoming: I need your help: which of the pair A , B has higher pIC50? I would appreciate it if you answered with the label of your choice.
Outgoing: A
(A: 6.52, B: 6.30)
